System: SF-539 CNS
Assay: NCI-60 one-dose screen, 48 h (100 = growth as untreated, 0 = no growth, -100 = all killed)
Conditions: 10 µM unless noted
The panel holds about 83,000 compounds, 20% with a hit somewhere; the sample as a whole holds those more often.
Listing: growth of selected molecules
RECORDED_METRIC: growth (%)

| SMILES_INPUT | MEASUREMENT_UNITS | TEST_VALUE |
| --- | --- | --- |
| Cc1ccc(/C=C/C(=N/N=C(N)N)c2ccccc2)cc1 | % | 3.64 |
| O=C(Cn1nncc1CN1C(=O)CSC1=O)Nc1ccc(F)cc1 | % | 97.8 |
| Cc1ccc(-c2cnc3sc4ccc(Cl)cc4n23)cc1 | % | 94.4 |
| O=C(C(=O)c1cccnc1)c1cccnc1 | % | 99.3 |

The measurements presented in this section are drawn from PubChem BioAssay (NCI).
